Study Target: Cyclophilin A (Homo sapiens)
Construct: made in house
Sequence (P62937 whole entry, species assumed): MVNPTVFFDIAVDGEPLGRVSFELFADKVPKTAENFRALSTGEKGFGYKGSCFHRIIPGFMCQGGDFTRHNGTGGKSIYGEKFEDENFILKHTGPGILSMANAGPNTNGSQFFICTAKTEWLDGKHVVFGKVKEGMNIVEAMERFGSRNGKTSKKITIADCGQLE
Measurement Protocol: AlphaLISA inhibition of binding of biotinylated Cyclosporin A to FLAG tagged Cyclophilin A
Details: AlphaLISA signal; test concentration not given
Where a SMILES comes first, the peptide text is derived from it. [ ]: non-standard residue; d: D form. MeBmt = C/C=C/C[C@@H](C)[C@@H](O)[C@H](NC)C(=O)O; NMeF = CN[C@@H](Cc1ccccc1)C(=O)O; NMeL = CN[C@@H](CC(C)C)C(=O)O; Tle = CC(C)(C)[C@H](N)C(=O)O; NMeV = CN[C@H](C(=O)O)C(C)C; NMeA = CN[C@@H](C)C(=O)O; Abu = CC[C@H](N)C(=O)O; Sar = CNCC(=O)O
Measure: % signal (%)
The response must be a number in % with no trailing unit.

Molecule | Value Measured
C/C=C/C[C@@H](C)[C@@H](O)[C@H]1C(=O)N[C@@H](CC)C(=O)N(C)CC(=O)N(C)[C@@H](Cc2ccccc2)C(=O)N[C@@H](C(C)(C)C)C(=O)N(C)[C@@H](C)C(=O)N[C@@H](CC(C)C)C(=O)N[C@H](C)C(=O)N(C)[C@@H](CC(C)C)C(=O)N(C)[C@@H](CC(C)C)C(=O)N(C)[C@@H](C(C)C)C(=O)N1C [Compound C72] (cyclo([MeBmt][Abu][Sar][NMeF][Tle][NMeA]L[dA][NMeL][NMeL][NMeV])) | 2.78

Pending molecule:
Q: % signal for C/C=C/C[C@@H](C)[C@@H](O)[C@H]1C(=O)N[C@@H](CC)C(=O)N(C)CC(=O)N(C)[C@@H](Cc2ccccc2)C(=O)N[C@@H](C(C)C)C(=O)N(C)[C@@H](C)C(=O)N[C@@H](C)C(=O)N[C@H](C)C(=O)N(C)[C@@H](CC(C)C)C(=O)N(C)[C@@H](CC(C)C)C(=O)N(C)[C@@H](C(C)C)C(=O)N1C [Compound C4] (cyclo([MeBmt][Abu][Sar][NMeF]V[NMeA]A[dA][NMeL][NMeL][NMeV])) ?
Result: 4.12
